# Target or system: human LPA1 receptor (Homo sapiens (Human), UniProt Q92633)
# Sequence (Q92633 whole entry): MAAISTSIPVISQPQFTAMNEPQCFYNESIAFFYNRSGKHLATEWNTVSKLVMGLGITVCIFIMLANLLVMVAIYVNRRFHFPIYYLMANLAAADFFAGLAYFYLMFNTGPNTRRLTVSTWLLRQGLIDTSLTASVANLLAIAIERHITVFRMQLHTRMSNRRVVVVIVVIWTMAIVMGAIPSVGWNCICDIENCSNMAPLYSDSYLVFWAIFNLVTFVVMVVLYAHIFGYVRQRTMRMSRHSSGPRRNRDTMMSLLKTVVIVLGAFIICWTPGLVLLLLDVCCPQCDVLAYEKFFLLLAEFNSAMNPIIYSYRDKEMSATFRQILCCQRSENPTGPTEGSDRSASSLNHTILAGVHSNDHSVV
# Measurement protocol: Beta-arrestin recruitment assay to determine IC50 values for human LPAR1
# Measurement parameters: antagonist mode, Tango EDG2-bla U2OS cells, LPA 18:1 500 nM final
pIC50: −log10 of the molar value.
# key: entry, value: pIC50
Quantity name: pIC50

| Compound string | Quantity name | Quantitative readout |
| --- | --- | --- |
| Cc1ccc(NC(=O)C2(c3ccccc3C(C)C)CN(C(=O)NCCC(C)(C)C(=O)O)C2)c(OC(F)F)n1 | pIC50 | 8.15 |
| Cc1ccc(NC(=O)C2(c3ccccc3C(C)C)CN(c3ncc(C(=O)O)n3C)C2)c(OC(F)F)n1 | pIC50 | 7.80 |
| Cc1ccc(NC(=O)C2(c3ccccc3C(C)C)CN(c3noc(O)n3)C2)c(OC(F)F)n1 | pIC50 | 7.92 |
| Cc1ccc(NC(=O)C2(c3ccccc3C(C)C)CN(c3cccc(C(=O)O)n3)C2)c(OC(F)F)n1 | pIC50 | 8.15 |
| Cc1ccc(NC(=O)C2(c3ccccc3C(C)C)CN(C(=O)CS(N)(=O)=O)C2)c(OC(F)F)n1 | pIC50 | 7.70 |
| Cc1ccc(NC(=O)C2(c3ccccc3C(C)C)CN(S(=O)(=O)CCC(=O)NO)C2)c(OC(F)F)n1 | pIC50 | 8.00 |
| CCOC(=O)C[C@H](N)C(=O)N1CC(C(=O)Nc2ccc(C)nc2OC(F)F)(c2ccccc2C(C)C)C1 | pIC50 | 7.64 |
| Cc1ccc(NC(=O)C2(c3ccccc3C(C)C)CN(c3cnc(C4(C(=O)O)CC4)nc3)C2)c(OC(F)F)n1 | pIC50 | 8.10 |
| CCCN(CC(=O)O)CC(=O)N1CC(C(=O)Nc2ccc(C)nc2OC(F)F)(c2ccccc2C(C)C)C1 | pIC50 | 8.15 |
| NS(=O)(=O)N1CC(C(=O)Nc2ncc(Cl)cc2OC(F)F)(c2ccccc2C2CCCC2)C1 | pIC50 | 7.66 |

----------
# Target or system: human LPA1 receptor (Homo sapiens (Human))
# Measurement protocol: Beta-arrestin recruitment assay to determine IC50 values for human LPAR1
# Measurement parameters: antagonist mode, Tango EDG2-bla U2OS cells, LPA 18:1 500 nM final
Friendly reminder: IC50 below 10 nM is class 1, at or above is class 0.

| Molecule | Category label |
| --- | --- |
| COC(=O)C1(c2ncc(N3CC(C(=O)Nc4ccc(C)nc4OC(F)F)(c4ccccc4C(C)C)C3)cn2)CC1 [Ex 18-16] | class 1 |
| Cc1ccc(NC(=O)C2(c3ccccc3C(C)C)CCN(S(=O)(=O)CCC(=O)OCc3ccccc3)CC2)c(OC(F)F)n1 [Ex 13-7] | class 0 |
| Cc1ccc(NC(=O)C2(c3ccccc3C(C)C)CN(C(=O)CN(CC(=O)O)C3CC3)C2)c(OC(F)F)n1 [Ex 43] | class 0 |
| COC(=O)[C@@H](C)NC(=O)N1CC(C(=O)Nc2ccc(C)nc2OC(F)F)(c2ccccc2C(C)C)C1 [Ex 17-23] | class 1 |
| Cc1ccc(NC(=O)C2(c3ccccc3C(C)C)CN(C(=O)C[C@@](C)(O)C(=O)O)C2)c(OC(F)F)n1 [Ex 12-116] | class 0 |
| Cc1ccc(NC(=O)C2(c3ccccc3C(C)C)CN(C(=O)C[C@@H](O)CC(=O)O)C2)c(OC(F)F)n1 [Ex 12-105] | class 0 |
